src = patent US9585891B2

measured.target: Human recombinant Vanin-1 (VNN1) (Homo sapiens, UniProt O95497)
Construct: purchased Sino Biological Inc. 11662-H08H
Sequence (O95497 22-491): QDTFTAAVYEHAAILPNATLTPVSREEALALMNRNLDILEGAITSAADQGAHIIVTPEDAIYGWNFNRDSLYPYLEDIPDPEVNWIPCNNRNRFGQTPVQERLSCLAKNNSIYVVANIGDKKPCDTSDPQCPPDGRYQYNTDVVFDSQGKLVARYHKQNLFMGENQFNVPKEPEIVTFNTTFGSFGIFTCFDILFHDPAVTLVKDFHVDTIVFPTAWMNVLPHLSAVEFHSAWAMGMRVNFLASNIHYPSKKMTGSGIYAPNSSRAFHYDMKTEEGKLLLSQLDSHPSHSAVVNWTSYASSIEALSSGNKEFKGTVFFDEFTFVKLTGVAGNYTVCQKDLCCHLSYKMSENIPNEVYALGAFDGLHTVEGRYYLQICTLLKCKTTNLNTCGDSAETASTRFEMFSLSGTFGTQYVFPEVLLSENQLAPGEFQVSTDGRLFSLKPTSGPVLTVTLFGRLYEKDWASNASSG
run.description: Vanin-1 enzymatic assay (fluorescence intensity, Pantothenate-AMC substrate)
Format: biochemical
details: purified recombinant human Vanin-1 0.5 nM; 30 min preincubation at 30° C.; Pantothenate-AMC 30 μM, 60 min
Procedure: Human recombinant Vanin-1 (VNN1) was purchased from Sino Biological Inc. (Catalog Number: 11662-H08H). Measurement of VNN1 inhibition is performed in 384-well format based on fluorescence intensity assay. […] After 60 minutes of incubation at 30° C. with gentle agitation, fluorescence intensity is measured at λex=350 nm and λem=450 nm with a fluorescence reader (BMG PHERAstar reader or equivalent).
// reported pIC50 for each item listed
Convention used: pIC50 is expressed as -log10 of the molar concentration.

Dear colleague, I am looking for the recorded pIC50 of the following compound: CCOC(=O)c1ccc(CNC(=O)C(=O)CCNC(=O)[C@H](O)C(C)(C)CO)cc1
7.70

Dear colleague, I am looking for the recorded pIC50 of the following compound: CC(C)(CO)[C@@H](O)C(=O)NCCC(=O)C(=O)NCc1cccc(OCCNS(C)(=O)=O)c1
6.42

Dear colleague, I am looking for the recorded pIC50 of the following compound: CC(C)(CO)[C@@H](O)C(=O)NCCC(=O)C(=O)NCc1ccccc1
7.40

Dear colleague, I am looking for the recorded pIC50 of the following compound: CC(C)(CO)[C@@H](O)C(=O)NCCC(=O)C(=O)NCC1CCN(S(=O)(=O)c2cccc(F)c2)CC1
7.70

Dear colleague, I am looking for the recorded pIC50 of the following compound: CC(C)(CO)[C@@H](O)C(=O)NCCN(CCOc1ccc(S(C)(=O)=O)cc1)C(=O)CCl
5.46

Dear colleague, I am looking for the recorded pIC50 of the following compound: CC(C)(CO)[C@@H](O)C(=O)NCCN(CCOc1ccc(C#N)cc1)C(=O)CCl
5.48

Dear colleague, I am looking for the recorded pIC50 of the following compound: CC(C)(CO)[C@@H](O)C(=O)NCCN(Cc1ccccc1)C(=O)CCl
5.45

----------
// reported log10 IC50 for each item listed
measured.target: Human recombinant Vanin-1 (VNN1) (Homo sapiens, UniProt O95497)
run.description: Vanin-1 enzymatic assay (fluorescence intensity, Pantothenate-AMC substrate)
details: purified recombinant human Vanin-1 0.5 nM; 30 min preincubation at 30° C.; Pantothenate-AMC 30 μM, 60 min
Reminder: these figures are log10 of reported IC50, in nM before transformation.

Reference set (10 entries):
1) CC(C)(CO)[C@@H](O)C(=O)NCCN(CCCc1ccccc1)C(=O)CCl	3.39
2) CC(C)(CO)[C@@H](O)C(=O)NCC/C=C/C(=O)CCc1ccccc1	3.76
3) COCCOc1ccc(CNC(=O)C(=O)CCNC(=O)[C@H](O)C(C)(C)CO)cc1	1.48
4) CC(C)(CO)[C@@H](O)C(=O)NCCC(=O)C(=O)NCC1CCCCC1	1.48
5) CC(C)(CO)[C@@H](O)C(=O)NCCC(=O)C(=O)NCCc1ccccc1	1.95
6) CC(C)(CO)[C@@H](O)C(=O)NCCC(=O)C(=O)NCc1ccc(N2CCOCC2)cc1	1.00
7) CC(C)(CO)[C@@H](O)C(=O)NCCC(=O)/C=C/Cc1ccccc1	3.30
8) CC(C)(CO)[C@@H](O)C(=O)NCCC(=O)C(=O)NCCc1ccc(S(C)(=O)=O)cc1	1.48
9) COC(=O)c1ccc(-c2ccc(CNC(=O)C(=O)CCNC(=O)[C@H](O)C(C)(C)CO)cc2)cc1	1.00
10) CC(C)(CO)[C@@H](O)C(=O)NCCC(=O)C(=O)N1CCOCC1	4.36

Proceed to the following item.
Dear colleague, I am looking for the recorded log10 IC50 of the following molecule: CC(C)(CO)[C@@H](O)C(=O)NCCN(CC1CCN(c2ccc(C#N)cc2)CC1)C(=O)CCl
3.13
